# Experiment description: Hepatic intrinsic clearance following incubation in human liver microsomes
# Format: in vitro ADME
# Assay conditions: NADPH regenerating system, 0-30 min, 37 °C
Value type: Human in vitro Clint (mL/min/g liver)

* Cc1ccccc1[C@H]1[C@@H]2CC(CCO)(CCO)C(=O)N2CCN1C(=O)N(C)[C@H](C)c1cc(C(F)F)cc(C(F)(F)F)c1 [Compound 98] | 4.0

I: CCc1cc([C@@H](C)N(C)C(=O)N2CCN3C(=O)C(CCO)(CCO)C[C@H]3[C@@H]2c2ccccc2C)cc(C(F)(F)F)c1
II: Cc1cc([C@H](C)N(C)C(=O)N2CCN3C(=O)C(CCO)(CCO)C[C@H]3[C@@H]2c2ccccc2C)cc(C(F)(F)F)c1
INPUT: Sorting by Human in vitro Clint (mL/min/g liver) in descending order, would I or II appear first? Answer by stating the label of the chosen item.
OUTPUT: I

---

# Assay target: NK1 receptor (Homo sapiens, UniProt P25103)
# Construct: Measurement of NK1 Receptor Mediated Intracellular [Ca^2+]; Mobilization in U251 MG Cells Using FLIPR; endogenous in cells; host or cells: U251 MG cells
# Sequence (P25103 whole entry): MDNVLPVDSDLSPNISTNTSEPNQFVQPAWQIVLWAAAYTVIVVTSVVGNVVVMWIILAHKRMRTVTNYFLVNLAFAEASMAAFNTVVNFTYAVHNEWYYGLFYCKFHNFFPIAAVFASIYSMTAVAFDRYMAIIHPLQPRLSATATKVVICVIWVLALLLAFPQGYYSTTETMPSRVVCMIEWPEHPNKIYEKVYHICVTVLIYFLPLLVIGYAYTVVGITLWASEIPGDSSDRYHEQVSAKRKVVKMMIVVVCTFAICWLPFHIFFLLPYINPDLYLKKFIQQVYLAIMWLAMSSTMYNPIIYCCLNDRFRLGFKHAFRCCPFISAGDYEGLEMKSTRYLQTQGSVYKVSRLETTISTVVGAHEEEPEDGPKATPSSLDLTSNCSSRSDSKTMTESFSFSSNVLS
# Experiment description: NK1 receptor mediated intracellular [Ca2+] mobilization in U251 MG cells using FLIPR
# Assay type: cell-based
# Assay conditions: antagonist potency against Substance P (EC80), normalized to 100 nM Aprepitant, read-out: U251MG (FLIPR pIC50) (converted)
# Description: Measurement of NK1 Receptor Mediated Intracellular [Ca^2+] Mobilization in U251 MG Cells Using FLIPR […] Pluronic F-127 (Sigma-Aldrich), and 2.5 mM probenecid (Sigma-Aldrich) for 60 min in a humidified atmosphere of 5% CO2. […] To measure antagonist potency, cell plates were first incubated with the test compound and intracellular fluorescence recorded for 5 minutes to check a potential agonist effect of the test compound. […]
Value type: IC50 (nM)

• Cc1ccccc1C1C2CC(CO)CN2CCN1C(=O)N(C)[C@H](C)c1cc(C(F)(F)F)cc(C(F)(F)F)c1 (single isomer, unassigned) [Compound 67] = 0.204

I: Cc1ccccc1C1C2CCC(=O)N2CCN1C(=O)N(C)Cc1cc(C(F)(F)F)cc(C(F)(F)F)c1 (single isomer, unassigned) [Compound 17]
II: Cc1ccccc1C1C2CC(CO)C(=O)N2CCN1C(=O)N(C)[C@H](C)c1cc(C(F)(F)F)cc(C(F)(F)F)c1 (single isomer, unassigned) [Compound 56]
INPUT: Could you tell me which of these two has the smaller IC50 figure? First: I Second: II Answer by stating the label of the chosen item.
OUTPUT: II
(II: 0.112 nM, I: 28.2 nM)

---

# Assay target: NK1 receptor (Homo sapiens, UniProt P25103)
# Construct: Measurement of NK1 Receptor Mediated Intracellular [Ca^2+]; Mobilization in U251 MG Cells Using FLIPR; endogenous in cells; host or cells: U251 MG cells
# Experiment description: NK1 receptor mediated intracellular [Ca2+] mobilization in U251 MG cells using FLIPR
# Type: cell-based
# Assay conditions: antagonist potency against Substance P (EC80), normalized to 100 nM Aprepitant, read-out: U251MG (FLIPR pIC50) (converted)
Value type: IC50 (pM)

• COC(=O)C1(C)CC2C(c3ccccc3C)N(C(=O)N(C)Cc3cc(C(F)(F)F)cc(C(F)(F)F)c3)CCN2C1=O (stereo not drawn) [Compound 11] = 813
• Cc1ccccc1C1C2CC(CO)CN2CCN1C(=O)N(C)Cc1cc(C(F)(F)F)cc(C(F)(F)F)c1 (single isomer, unassigned) [Compound 27] = 58900
• Cc1ccccc1C1C2CC(C)(C(=O)N(C)C)C(=O)N2CCN1C(=O)N(C)Cc1cc(C(F)(F)F)cc(C(F)(F)F)c1 (single isomer, unassigned) [Compound 26] = 661
• COc1cc([C@@H](CO)N(C)C(=O)N2CCN3C(=O)C(CCO)(CCO)C[C@H]3[C@@H]2c2ccccc2C)cc(C(F)(F)F)c1 = 155

1: COC(=O)C1(C)CC2C(c3ccccc3C)N(C(=O)N(C)Cc3cc(C(F)(F)F)cc(C(F)(F)F)c3)CCN2C1=O (single isomer, unassigned) [Compound 13]
2: COc1cc([C@@H](C)N(C)C(=O)N2CCN3C(=O)C(CCO)(CCO)C[C@H]3[C@@H]2c2ccccc2C)cc(C(F)(F)F)c1
INPUT: Could you tell me which of these two has the smaller IC50 figure? First: 1 Second: 2 Answer by stating the label of the chosen item.
OUTPUT: 2
(2: 63.1 pM, 1: 4170 pM)

---

# Assay target: NK1 receptor (Homo sapiens, UniProt P25103)
# Construct: Measurement of NK1 Receptor Mediated Intracellular [Ca^2+]; Mobilization in U251 MG Cells Using FLIPR; endogenous in cells; host or cells: U251 MG cells
# Experiment description: NK1 receptor mediated intracellular [Ca2+] mobilization in U251 MG cells using FLIPR
# Assay type: cell-based
# Assay conditions: antagonist potency against Substance P (EC80), normalized to 100 nM Aprepitant, read-out: U251MG (FLIPR pIC50) (converted)
Value type: IC50 (nM)

Worked examples, 2 compounds total:
- Cc1ccccc1C1C2CC(CO)CN2CCN1C(=O)N(C)Cc1cc(C(F)(F)F)cc(C(F)(F)F)c1 (single isomer, unassigned) [Compound 28]: 0.912
- Cc1ccccc1C1C2CC(CN3CCOCC3)C(=O)N2CCN1C(=O)N(C)Cc1cc(C(F)(F)F)cc(C(F)(F)F)c1 (single isomer, unassigned) [Compound 38]: 0.195

I: Cc1ccccc1C1C2CC(CO)CN2CCN1C(=O)N(C)Cc1cc(C(F)(F)F)cc(C(F)(F)F)c1 (single isomer, unassigned) [Compound 48]
II: Cc1ccccc1C1C2CCC(=O)N2CCN1C(=O)N(C)Cc1cc(F)cc(C(F)(F)F)c1 (single isomer, unassigned) [Compound 4]
III: Cc1ccccc1C1C2CC(CN3CCOCC3)C(=O)N2CCN1C(=O)N(C)[C@H](C)c1cc(C(F)(F)F)cc(C(F)(F)F)c1 (single isomer, unassigned) [Compound 71]
IV: Cc1ccccc1[C@@H]1[C@H]2CCC(=O)N2CCN1C(=O)N(C)[C@H](C)c1cc(C(F)(F)F)cc(C(F)(F)F)c1 (single isomer, unassigned) [Compound 10]
INPUT: Please produce an ascending ranking of these compounds based on IC50. Answer by writing out the labels in the requested order.
OUTPUT: I, IV, III, II

---

# Assay target: NK1 receptor (Homo sapiens, UniProt P25103)
# Construct: Measurement of NK1 Receptor Mediated Intracellular [Ca^2+]; Mobilization in U251 MG Cells Using FLIPR; endogenous in cells; host or cells: U251 MG cells
# Experiment description: NK1 receptor mediated intracellular [Ca2+] mobilization in U251 MG cells using FLIPR
# Format: cell-based
# Assay conditions: antagonist potency against Substance P (EC80), normalized to 100 nM Aprepitant, read-out: U251MG (FLIPR pIC50) (converted)
Value type: IC50 (nM)

Worked examples, 2 molecules total:
* Cc1ccccc1C1C2CC(CCO)(CCO)CN2CCN1C(=O)N(C)[C@H](C)c1cc(C(F)(F)F)cc(C(F)(F)F)c1 (single isomer, unassigned) [Compound 60] | 0.339
* Cc1ccccc1C1C2CC(CCO)(CCO)C(=O)N2CCN1C(=O)N(C)Cc1cc(C(F)(F)F)cc(C(F)(F)F)c1 (single isomer, unassigned) [Compound 44] | 0.0692

a: COC(=O)C1(C)CC2C(c3ccccc3C)N(C(=O)N(C)Cc3cc(C(F)(F)F)cc(C(F)(F)F)c3)CCN2C1=O (single isomer, unassigned) [Compound 12]
b: Cc1ccccc1C1C2CC(C)(C(=O)N(C)C)C(=O)N2CCN1C(=O)N(C)Cc1cc(C(F)(F)F)cc(C(F)(F)F)c1 (single isomer, unassigned) [Compound 25]
c: Cc1ccccc1C1C2CC3(CCN(C)CC3)C(=O)N2CCN1C(=O)N(C)Cc1cc(C(F)(F)F)cc(C(F)(F)F)c1 (racemic) [Compound 45]
d: Cc1ccccc1C1C2CC(CCO)(CCO)CN2CCN1C(=O)N(C)Cc1cc(C(F)(F)F)cc(C(F)(F)F)c1 (single isomer, unassigned) [Compound 66]
e: Cc1ccccc1C1C2CC3(CCN(C)CC3)C(=O)N2CCN1C(=O)N(C)Cc1cc(C(F)(F)F)cc(C(F)(F)F)c1 (single isomer, unassigned) [Compound 46]
INPUT: Task field, ranking: reported IC50, descending order. Answer by writing out the labels in the requested order.
OUTPUT: b, e, a, c, d

---

# Assay target: NK1 receptor (Homo sapiens, UniProt P25103)
# Construct: Measurement of NK1 Receptor Mediated Intracellular [Ca^2+]; Mobilization in U251 MG Cells Using FLIPR; endogenous in cells; host or cells: U251 MG cells
# Experiment description: NK1 receptor mediated intracellular [Ca2+] mobilization in U251 MG cells using FLIPR
# Format: cell-based
# Assay conditions: antagonist potency against Substance P (EC80), normalized to 100 nM Aprepitant, read-out: U251MG (FLIPR pIC50) (converted)
Value type: IC50 (pM)

1: COC(=O)C1(C)CC2C(c3ccccc3C)N(C(=O)N(C)Cc3cc(C(F)(F)F)cc(C(F)(F)F)c3)CCN2C1=O (single isomer, unassigned) [Compound 15]
2: Cc1ccccc1[C@H]1[C@@H]2CC(CCO)(CCO)C(=O)N2CCN1C(=O)N(C)[C@H](CO)c1cc(F)cc(C(F)(F)F)c1 [Compound 94]
3: Cc1ccccc1C1C2CCCN2CCN1C(=O)N(C)[C@H](C)c1cc(C(F)(F)F)cc(C(F)(F)F)c1 (single isomer, unassigned) [Compound 63]
INPUT: Hello, I need these entries ordered by IC50, highest reading first. Thanks! Answer by writing out the labels in the requested order.
OUTPUT: 3, 1, 2
(3: 324 pM, 1: 100 pM, 2: 50.1 pM)
